- experimentalSystem: T1, FcRn-p3 fusion protein (human, UniProt P55899 24-297; P61769 21-119)
- T1 construct: baculovirus expressed; coated on ELISA wells; not shown: amino terminal part of bacteriophage p3 protein and CVDE protein
- T1 sequence (P55899 24-297, chain 1 of 2): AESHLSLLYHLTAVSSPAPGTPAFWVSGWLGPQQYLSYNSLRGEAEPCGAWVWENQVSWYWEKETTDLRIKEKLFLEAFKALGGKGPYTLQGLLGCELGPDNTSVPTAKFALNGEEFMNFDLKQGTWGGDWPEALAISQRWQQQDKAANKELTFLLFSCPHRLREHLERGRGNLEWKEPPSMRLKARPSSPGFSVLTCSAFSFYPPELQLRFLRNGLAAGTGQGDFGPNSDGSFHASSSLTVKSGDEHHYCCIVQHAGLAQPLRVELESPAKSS
- T1 sequence (P61769 21-119, chain 2 of 2): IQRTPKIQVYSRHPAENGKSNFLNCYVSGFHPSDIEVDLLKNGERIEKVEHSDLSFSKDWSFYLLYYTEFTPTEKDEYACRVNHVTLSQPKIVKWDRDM
- experimentalProtocol: phage ELISA pH6
reportedMetric: Ratio/Fc-H (fold)
Kindly provide the numeric value in fold only, without the unit symbol.

[
  {
    "binder": "C4A_36 (other, EU numbering) CPPCPAPELLGGPSVFLFPPKPKDTLMISRTPEVTCVVVDVSHEDPEVKFNWYVDGVEVHNAKTKPREEQYNSTYRVVSVLTVLHQDWLDGKEYTCKVSNKALPAPIEKTISKAKGQPREPQVYTLPPSRDELTKNQVSLTCLVKGFYPSDIAVEWESNGQPENNYKTTPPVLDSDGSFFLYSKLTVDKSRWQQGNVFSCSVMHEALHYHYTQKSLSLSPGK",
    "Ratio/Fc-H [fold]": 2.8
  },
  {
    "binder": "T3A_11 (other, EU numbering) CPPCPAPELLGGPSVFLFPPKPKDTLMISRTPEVTCVVVDVSHEDPEVKFNWYVDGVEVHNAKTKSREEQYNSTYRVVSVLTVLHQDWLDGKEYKCKVSNKVLPVPIEKTISKAKGQPREPQVYTLPPSRDELTKNQVSLTCLVKGFYPSDIAVEWESNGQPENNYKTTPPVLDSDGSFFLYSKLTVDKSRWQQGNVFSCSVMHEALHYHYTQKSLSLSPGK",
    "Ratio/Fc-H [fold]": 1.3
  },
  {
    "binder": "C6A_05 (other, EU numbering) CPPCPAPELLGGPSVFLFPPKPKDTLMISRTPEVTCVVVDVSHEDPEVKFNWYVDGVEVHNAKTKPREEQYNSTYRVVSVLAVLHQDWLDGKEYKCKVSNKALPVPIEKTISKAKGQPREPQVYTLPPSRDELTKNQVSLTCLVKGFYPSDIAVEWESNGQPENNYKTTPPVLDSDGSFFLYSKLTVDKSRWQQGNVFSCSVMHEALHYHYTQKSLSLSPGK",
    "Ratio/Fc-H [fold]": 1.9
  },
  {
    "binder": "T3A_41 (other, EU numbering) CPPCPAPELLGGPSVFLFPPKPKDTLMISRTPEVTCVVEDVSHEDPEVKFNWYVDGVEVHNAKTKPREEQYNSTYRVVSVLPVLHQDWLNGKEYKCKVSNKALPAPIEKTISKAKGQPREPQVYTLPPSRDELTKNQVSLTCLVKGFYPSDIVVEWESNGQPENNYKTTPPVLDSDGSFFLYSKLTVDKSRWQQGNVFSCSVMHEALHNHYTQKSLSLSPGK",
    "Ratio/Fc-H [fold]": 2.3
  }
]

--- query ---
Lab note: C7A_89 (other, EU numbering) CPPCPAPELLGGPSVFLFPPKPKDTLMISRTPEVTCVVVDVSHEDPEVKFNWYVDGVEVHNAKTKPREEQYNSTYRVVSVLPVLHQDWLNGKEYKCKVSNKTLPAPIEKTISKAKGQPREPQVYTLPPSRDELTKNQVSLTCLVKGFYPSDIAVEWESNGQPETNYKTTPPVLDSDGSFFLYSKLTVDKSRWQQGTVFSCSVMHEALHYHYTQKSLSLSPGK gave Ratio/Fc-H of 2.3

Data origin, for the record: patent USRE46585
